Kindly supply the reported log10(IC50) values for the records listed here.
# System: MES-SA/Dx5 cells
# PROTOCOL_SUMMARY: PrestoBlue viability assay, MES-SA/Dx5 cells (MDR, P-gp positive)
# MEASUREMENT_SETUP: Homo sapiens, MES-SA/Dx5, 72 h, read-out: IC50 / μM MES-SA/Dx5, absence of TQ; 72 h incubation
# values: log10(IC50), units µM

{"COMPOUND": "CC(C)OCc1cc(CN2CCOCC2)c(O)c2ncccc12 [Compound 33]", "log10(IC50)": 0.24}
{"COMPOUND": "Oc1c(C(c2ccncc2)N2CCOCC2)ccc2cccnc12 (stereo not shown) [Compound 104]", "log10(IC50)": 0.85}
{"COMPOUND": "Oc1c(CN2CCN(c3ccccn3)CC2)cc(Cl)c2cccnc12 [Compound 43]", "log10(IC50)": -0.48}
{"COMPOUND": "Cc1ccc(C(c2cc(Cl)c3cccnc3c2O)N2CCCC2)cc1 (stereo not shown) [Compound 91]", "log10(IC50)": 0.78}
{"COMPOUND": "CCOC(=O)C1CCCN(Cc2cc(Cl)c3cccnc3c2O)C1 (stereo not shown) [Compound 78]", "log10(IC50)": -0.37}
{"COMPOUND": "Oc1c(C(c2ccccn2)N2CCCC2)ccc2cccnc12 (stereo not shown) [Compound 84]", "log10(IC50)": 1.01}
{"COMPOUND": "OCCN(CCO)Cc1cc(Cl)c2cccnc2c1O [Compound 6]", "log10(IC50)": 0.72}
{"COMPOUND": "Oc1c(CN2CCCCCC2)cc(Cl)c2cccnc12 [Compound 53]", "log10(IC50)": -0.48}

Let us examine a further case.
Please look at Oc1cc2c(cc1O)CN(Cc1ccc3cccnc3c1O)CC2 [Compound 82] and tell me its recorded log10(IC50) on MES-SA/Dx5 cells. 0.56

###

# PROTOCOL_SUMMARY: UV-visible spectrophotometric titrations (pKa)
# Assay type: physicochemical
# MEASUREMENT_SETUP: water with 0.2% (v/v) DMSO, quinolinium nitrogen, 25 °C, I = 0.10 M KCl, read-out: pKa (NquinH+), experimentally determined
For each entry below, report its pKa value.
Answers are plain numbers.

Consider the worked cases shown below.
{"COMPOUND": "CN1CCN(Cc2cc(Cl)c3cccnc3c2O)CC1 [Compound 9]", "pKa": 3.56}
{"COMPOUND": "CC(C)OCc1cc(CN2CCCCC2)c(O)c2ncccc12 [Compound 24]", "pKa": 2.43}
{"COMPOUND": "Oc1ccc(CN2CCCCC2)c2cccnc12 [Compound 47]", "pKa": 3.83}
{"COMPOUND": "CCOCc1cc(CN2CCCC2)c(O)c2ncccc12 [Compound 18]", "pKa": 2.49}
{"COMPOUND": "Oc1c(C(c2ccccn2)N2CCOCC2)cc(Cl)c2cccnc12 (centres unmarked) [Compound 108]", "pKa": 1.89}
{"COMPOUND": "COCc1ccc(O)c2ncccc12 [Compound 14]", "pKa": 4.64}
{"COMPOUND": "Oc1c(C(c2ccccc2)N2CCCCC2)cc(Cl)c2cccnc12 (centres unmarked) [Compound 97]", "pKa": 1.7}
{"COMPOUND": "Oc1c(CN2CCCCC2)cc(Br)c2cccnc12 [Compound 20]", "pKa": 1.8}
{"COMPOUND": "CCN1CCN(Cc2ccc(O)c3ncccc23)CC1 [Compound 55]", "pKa": 4.94}
{"COMPOUND": "Oc1c(CN2CCc3ccccc3C2)ccc2cccnc12 [Compound 51]", "pKa": 3.07}

Give pKa for each of the items listed below.
1. Oc1ccc(CN2CCN(c3ccccc3)CC2)c2cccnc12 [Compound 57]
2. Oc1c(CN2CCN(c3ccccc3)CC2)cc(Cl)c2cccnc12 [Compound 38]

1. 3.63
2. 1.7

Kindly indicate its recorded pKa. Item: Oc1c(CN2CCCc3ccccc32)ccc2cccnc12 [Compound 79] 4.45

###

For each record, write down the corresponding IC50.
# Test system: MES-SA/Dx5 cells
# PROTOCOL_SUMMARY: PrestoBlue viability assay, MES-SA/Dx5 cells (MDR, P-gp positive)
# MEASUREMENT_SETUP: Homo sapiens, MES-SA/Dx5, 72 h, read-out: IC50 / μM MES-SA/Dx5, absence of TQ; 72 h incubation
Answers are plain numbers, in µM.

{"COMPOUND": "Oc1ccc(CN2CCCCCC2)c2cccnc12 [Compound 52]", "TEST_VALUE": 5.84}
{"COMPOUND": "Oc1c(C(c2ccccn2)N2CCOCC2)ccc2cccnc12 (centres unmarked) [Compound 103]", "TEST_VALUE": 14.6}
{"COMPOUND": "CCOCc1cc(CN2CCCC2)c(O)c2ncccc12 [Compound 18]", "TEST_VALUE": 0.93}

Could you please provide reported IC50 for CCCCOCc1cc(CN2CCN(C)CC2)c(O)c2ncccc12 [Compound 10] ? Thanks! 2.12

###

# Tested on: MES-SA/Dx5 cells
# PROTOCOL_SUMMARY: PrestoBlue viability assay, MES-SA/Dx5 cells (MDR, P-gp positive)
# MEASUREMENT_SETUP: Homo sapiens, MES-SA/Dx5, 72 h, read-out: IC50 / μM MES-SA/Dx5, absence of TQ; 72 h incubation
Kindly state IC50 for each of the entries shown.
Answers are plain numbers, in µM.

{"COMPOUND_STRUCTURE": "CC(=O)Nc1cc(CN2CCCCC2)c(O)c2ncccc12", "IC50 (µM)": 19.4}
{"COMPOUND_STRUCTURE": "CCN(CC)Cc1cc(Cl)c2cccnc2c1O", "IC50 (µM)": 0.35}

Moving on to the next molecule.
Complete the entry with IC50 for `Oc1c(CN2CCOCC2)cc(Cl)c2cccnc12` 0.82

###

# Tested on: A431 cells
# PROTOCOL_SUMMARY: PrestoBlue viability assay, A431 cells
# MEASUREMENT_SETUP: Homo sapiens, A-431, 72 h, read-out: IC50 / µM A431, 72 h incubation
ENDPOINT_NAME: IC50 (µM)
Answers are plain numbers, in µM.

// below: answered molecules
{"COMPOUND_STRUCTURE": "CCOCc1cc(CN2CCCCC2)c(O)c2ncccc12", "TEST_VALUE": 25.2}
{"COMPOUND_STRUCTURE": "CCCOCc1cc(CN2CCN(c3ccccc3)CC2)c(O)c2ncccc12", "TEST_VALUE": 5.69}
{"COMPOUND_STRUCTURE": "Oc1c(CN2CCN(c3ccc(F)cc3)CC2)cc(Cl)c2cccnc12", "TEST_VALUE": 4.04}
{"COMPOUND_STRUCTURE": "COCc1cc(CN2CCC(C)CC2)c(O)c2ncccc12", "TEST_VALUE": 14.5}

Report IC50 for every entry below.
1. Oc1c(CN2CCOCC2)cc(Cl)c2cccnc12
2. CCCOCc1cc(CN2CCCCC2)c(O)c2ncccc12
3. Oc1c(CN2CCCCC2)cc(Br)c2cccnc12

1: 6.6; 2: 6.72; 3: 6.91

###

# Test system: MES-SA/Dx5 cells
# PROTOCOL_SUMMARY: PrestoBlue viability assay, MES-SA/Dx5 cells (MDR, P-gp positive)
# MEASUREMENT_SETUP: selectivity ratio MES-SA vs MES-SA/Dx5, without TQ
ENDPOINT_NAME: SR

{"MOLECULE": "CCN(CC)Cc1ccc2cccnc2c1O [Compound 1]", "SR": 4.49}
{"MOLECULE": "CCN1CCN(C(c2cccnc2)c2ccc3cccnc3c2O)CC1 (stereo not shown) [Compound 115]", "SR": 1.99}
{"MOLECULE": "Oc1c(C(c2ccccc2Cl)N2CCOCC2)ccc2cccnc12 (stereo not shown) [Compound 105]", "SR": 1.13}
{"MOLECULE": "CC(=O)Nc1cc(CN2CCCCC2)c(O)c2ncccc12 [Compound 11]", "SR": 0.64}
{"MOLECULE": "CCOCc1cc(CN2CCN(c3ccccc3)CC2)c(O)c2ncccc12 [Compound 40]", "SR": 3.72}
{"MOLECULE": "CN1CCN(C(c2ccncc2)c2ccc3cccnc3c2O)CC1 (stereo not shown) [Compound 112]", "SR": 2.02}

Below are 8 molecules. Give each one its SR.
1. CCN1CCN(Cc2ccc(O)c3ncccc23)CC1 [Compound 55]
2. CCCOCc1cc(CN2CCN(C)CC2)c(O)c2ncccc12 [Compound 37]
3. Oc1c(CN2CCOCC2)cc(Cl)c2cccnc12 [Compound 29]
4. Oc1c(C(c2ccccn2)N2CCOCC2)ccc2cccnc12 (stereo not shown) [Compound 103]
5. CCOCc1cc(CN2CCC(C)CC2)c(O)c2ncccc12 [Compound 27]
6. Oc1ccc(CN2CCCCCC2)c2cccnc12 [Compound 52]
7. Oc1c(C(c2cccnc2)N2CCCCC2)ccc2cccnc12 (stereo not shown) [Compound 92]
8. COCc1cc(CN2CCC(C)CC2)c(O)c2ncccc12 [Compound 26]

1. 0.83
2. 4.17
3. 1.86
4. 1.62
5. 8.71
6. 1.23
7. 1.59
8. 10.73

Quick batch: SR for everything below.
1. CCN1CCN(C(c2cccnc2)c2cc(Cl)c3cccnc3c2O)CC1 (stereo not shown) [Compound 118]
2. Oc1c(C(c2ccc(C(F)(F)F)cc2)N2CCCC2)ccc2cccnc12 (racemic) [Compound 89]
3. Oc1c(C(c2ccncc2)N2CCCCC2)ccc2cccnc12 (stereo not shown) [Compound 93]
4. CC1CCCCN1Cc1cc(Cl)c2cccnc2c1O (stereo not shown) [Compound 77]
5. CCOCc1cc(CN2CCN(C)CC2)c(O)c2ncccc12 [Compound 36]

[0.92, 3.91, 1.93, 7.57, 3.09]
